# ASSAY_SYSTEM: GSK-3α (Homo sapiens)
# Sequence (P49840 whole entry): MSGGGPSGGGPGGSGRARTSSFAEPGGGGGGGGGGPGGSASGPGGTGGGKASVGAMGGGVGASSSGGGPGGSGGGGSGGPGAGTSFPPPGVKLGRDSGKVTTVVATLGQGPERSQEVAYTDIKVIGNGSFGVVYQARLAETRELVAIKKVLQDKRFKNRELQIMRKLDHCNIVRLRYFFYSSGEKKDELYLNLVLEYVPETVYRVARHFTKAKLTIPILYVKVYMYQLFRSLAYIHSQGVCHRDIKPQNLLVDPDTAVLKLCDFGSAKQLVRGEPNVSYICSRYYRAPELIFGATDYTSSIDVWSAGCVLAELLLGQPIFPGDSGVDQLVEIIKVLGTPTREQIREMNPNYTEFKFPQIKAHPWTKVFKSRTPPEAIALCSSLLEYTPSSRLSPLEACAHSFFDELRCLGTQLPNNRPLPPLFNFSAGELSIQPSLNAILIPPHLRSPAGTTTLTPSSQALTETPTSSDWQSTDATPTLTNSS
pKi: −log10 of the molar value.

>  <COMPOUND>
COc1ccc(-c2ocnc2C(=O)NCCCc2cnccn2)cc1F [compound 28]

>  <pKi>
8.48

$$$$

---

# ASSAY_SYSTEM: DYRK1A (Homo sapiens, UniProt Q13627)

>  <SMILES_DATA>
COc1ccc(-c2ocnc2C(=O)NCCCc2cnccn2)cc1F

>  <ASSAY_SYSTEM>
DYRK1A (Homo sapiens, UniProt Q13627)

>  <Ki>
325 nM

$$$$

---

# TEST: neuropharmacokinetic study in mice
# Format: in vivo, mouse
# EXPERIMENTAL_SETUP: C57BL/6, mouse, brain, po, 50 mg/kg

>  <COMPOUND>
COc1ccc(-c2ocnc2C(=O)NCCCc2cccnc2)cc1F [compound 44]

>  <Tmax (h)>
1

$$$$
